# System: pDNA-PK induction in HCT116 tumour spheroids
# Experiment: Multicellular tumour spheroid + radiation, pDNA-PK (ser2056) inhibition, immunohistochemical endpoint, HCT116
# Format: cell-based
# Condition Description: Homo sapiens, HCT-116; 20 Gy, 2 hours following radiation, 20% O2; Example 9 Study 2; read-out: Spheroid Cell line: HCT116 Immunohistochemical endpoint pDNA-PK inhibition EC50
pEC50: −log10 of the molar value.
Metric: pEC50

- CN(C)C(=O)COc1cnc(N[C@H]2CC[C@@H](Oc3nc(N4CCOCC4)cc4ncc(NS(C)(=O)=O)cc34)CC2)nc1 [Compound 182]: 6.30 to 8.00
- c1cnc2cc(N3CCOCC3)nc(O[C@H]3CC[C@@H](Nc4ncc(OCCN5CCOCC5)cn4)CC3)c2c1 [Compound 68]: 6.00 to 6.30
- Cn1c(=O)[nH]c2cnc(N[C@H]3CC[C@@H](Oc4nc(N5CCOCC5)cc5ncccc45)CC3)nc21 [Compound 100]: 6.30 to 8.00
- CN1CCN(C(=O)COc2cnc(N[C@H]3CC[C@@H](Oc4nc(N5CCOCC5)cc5ncccc45)CC3)nc2)CC1 [Compound 62]: 6.00 to 6.30
- CN(C)C(=O)COc1ccnc(N[C@H]2CC[C@@H](Oc3nc(N4CCOCC4)cc4ncccc34)CC2)n1 [Compound 56]: 6.00 to 6.30

Problem: Given CN(C)C(=O)Cn1c(=O)n(C2CCOCC2)c2nc(N[C@H]3CC[C@@H](Oc4nc(N5CCOCC5)cc5ncccc45)CC3)ncc21 [Compound 97] , report its pEC50 on pDNA-PK induction in HCT116 tumour spheroids.
Solution: 6.30 to 8.00

Problem: Find pEC50 for CS(=O)(=O)NCCOc1cnc(N[C@H]2CC[C@@H](Oc3nc(N4CCOCC4)cc4ncccc34)CC2)nc1 [Compound 67] on pDNA-PK induction in HCT116 tumour spheroids and write it down.
Solution: 6.30 to 8.00

###

# Experiment: Pharmacokinetic study in mice (IV and PO), plasma
# Type: in vivo, mouse
# Condition Description: female, C57BL/6; mouse plasma, IV, 3 mg/kg
Metric: AUC(0-t) (ng·h/mL)

Worked examples, 3 molecules total:
* CN(C)C(=O)Cn1c(=O)n(C2CCOCC2)c2nc(N[C@H]3CC[C@@H](Oc4nc(N5CCOCC5)cc5ncccc45)CC3)ncc21 | 4340
* CN1CCN(CCOc2cnc(N[C@H]3CC[C@@H](Oc4nc(N5CCOCC5)cc5ncccc45)CC3)nc2)CC1 | 1630
* CN(C)C(=O)Cn1ccc2nc(N[C@H]3CC[C@@H](Oc4nc(N5CCOCC5)cc5ncccc45)CC3)ncc21 | 4100

(a) O=C(COc1cnc(N[C@H]2CC[C@@H](Oc3nc(N4CCOCC4)cc4ncccc34)CC2)nc1)N1CCOCC1
(b) O=C(COc1cnc(N[C@H]2CC[C@@H](Oc3nc(N4CCOCC4)cc4ncccc34)CC2)nc1)N1CCC1
Problem: Short answer wanted: higher AUC(0-t), a or b ? Identify your pick by its label.
Solution: b
(b: 7960 ng·h/mL, a: 5210 ng·h/mL)

###

# System: FaDu cell line
# Experiment: Prodrug Activation in Hypoxic Stirred Tumour Cell Suspensions
# Condition Description: 10 μM, 4 hours, 0.2% O2
Metric: Fraction of prodrug converted to active form, Hypoxic 0.2% O2

• COc1cccnc1N[C@H]1CC[C@@H](Oc2nc(N3CCOCC3)cc3ncc(N(Cc4cnc([N+](=O)[O-])n4C)S(C)(=O)=O)cc23)CC1 = B (B is 0.05 to 0.15)
• Cc1cc(C#N)nc(N[C@H]2CC[C@@H](Oc3nc(N4CCOCC4)cc4ncc(OCc5cnc([N+](=O)[O-])n5C)cc34)CC2)n1 = B (B is 0.05 to 0.15)
